Value source: patent US20260317319A1

# assayed target: 5-HT2B receptor (Homo sapiens, UniProt P41595)
# Construct: expressed in transfected cells; host or cells: HEK293, stably transfected
# Sequence (P41595 whole entry): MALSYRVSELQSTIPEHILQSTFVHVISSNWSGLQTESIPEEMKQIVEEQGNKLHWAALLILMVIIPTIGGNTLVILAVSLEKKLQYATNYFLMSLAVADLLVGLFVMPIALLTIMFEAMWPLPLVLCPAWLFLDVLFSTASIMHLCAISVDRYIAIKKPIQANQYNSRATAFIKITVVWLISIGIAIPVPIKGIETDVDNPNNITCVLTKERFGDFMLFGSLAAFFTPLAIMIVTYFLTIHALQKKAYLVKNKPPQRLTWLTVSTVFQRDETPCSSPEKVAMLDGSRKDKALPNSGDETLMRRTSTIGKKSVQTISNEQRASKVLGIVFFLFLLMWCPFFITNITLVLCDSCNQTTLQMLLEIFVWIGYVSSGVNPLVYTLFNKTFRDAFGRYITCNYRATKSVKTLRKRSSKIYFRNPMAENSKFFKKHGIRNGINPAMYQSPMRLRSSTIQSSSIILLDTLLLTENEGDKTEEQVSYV
# method: cell-based
# Type: cell-based
# condition details: agonist, Ca2+ flux, HEK293, max dose
observable: 5-HT2B % Act @ Max Dose (%)
// note: answer is a bare numeric in %

Record excerpt, results attached:
CCN(CC)C(=O)[C@@H]1C=C2c3cccc4[nH]cc(c34)C[C@H]2NC1 | 69.27
CCN(CC)C(=O)[C@@H]1C=C2c3cccc4[nH]cc(c34)C[C@H]2N(CCc2ccccc2OC)C1 | 2.5
CCN(CC)C(=O)[C@@H]1C=C2c3cccc4[nH]cc(c34)C[C@H]2N(Cc2ccnc(OC)c2)C1 | 1.38

Next up:
Supply measured 5-HT2B % Act @ Max Dose of `CCN(CC)C(=O)[C@@H]1C=C2c3cccc4[nH]c(Br)c(c34)C[C@H]2N(C)C1` in your reply.
-0.13

* * *

# assayed target: Alpha2A adrenergic receptor (Homo sapiens)
# Construct: expressed in transfected cells
# Sequence (P08913 1-465): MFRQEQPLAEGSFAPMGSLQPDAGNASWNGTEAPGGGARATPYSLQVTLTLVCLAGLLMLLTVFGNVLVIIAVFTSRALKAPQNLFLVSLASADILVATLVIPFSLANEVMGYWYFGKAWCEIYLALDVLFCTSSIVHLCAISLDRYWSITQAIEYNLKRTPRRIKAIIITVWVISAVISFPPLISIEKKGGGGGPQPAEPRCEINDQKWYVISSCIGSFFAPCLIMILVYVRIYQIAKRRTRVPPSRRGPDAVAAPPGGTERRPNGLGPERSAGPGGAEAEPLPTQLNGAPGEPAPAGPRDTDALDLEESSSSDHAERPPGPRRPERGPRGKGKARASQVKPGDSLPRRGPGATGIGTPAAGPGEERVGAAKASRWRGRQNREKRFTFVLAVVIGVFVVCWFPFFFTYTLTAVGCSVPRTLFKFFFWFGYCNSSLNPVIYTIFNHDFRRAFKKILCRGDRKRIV
# method: Ca2+ flux functional assay at Alpha2A
# Type: cell-based
# condition details: agonist, Ca2+ flux, max dose; read-out: Alpha 2A % Act @ Max Dose
Measured Emax of individual entries
// note: answer is a bare numeric in %

Record excerpt, results attached:
CCCN1C[C@H](C(=O)N[C@H](C)CC)C=C2c3cccc4[nH]cc(c34)C[C@H]21 [Compound 3] | 96.8
CCCN1C[C@H](C(=O)N2[C@@H](C)C[C@@H]2C)C=C2c3cccc4[nH]cc(c34)C[C@H]21 [Compound 4] | 103
CCCN1C[C@H](C(=O)N(CC)CC)C=C2c3cccc4[nH]cc(c34)C[C@H]21 [Compound 1] | 58.3
CCN(CC)C(=O)[C@@H]1C=C2c3cccc4[nH]cc(c34)C[C@H]2N(CCCF)C1 [Compound 2] | 65

Next up:
Supply measured Emax of CCN(CC)C(=O)[C@@H]1C=C2c3cccc4[nH]cc(c34)C[C@H]2N(Cc2ccccc2OC)C1 [Compound 10] in your reply.
36.5

* * *

# assayed target: 5-HT2C receptor (Homo sapiens, UniProt P28335)
# Sequence (P28335 33-458): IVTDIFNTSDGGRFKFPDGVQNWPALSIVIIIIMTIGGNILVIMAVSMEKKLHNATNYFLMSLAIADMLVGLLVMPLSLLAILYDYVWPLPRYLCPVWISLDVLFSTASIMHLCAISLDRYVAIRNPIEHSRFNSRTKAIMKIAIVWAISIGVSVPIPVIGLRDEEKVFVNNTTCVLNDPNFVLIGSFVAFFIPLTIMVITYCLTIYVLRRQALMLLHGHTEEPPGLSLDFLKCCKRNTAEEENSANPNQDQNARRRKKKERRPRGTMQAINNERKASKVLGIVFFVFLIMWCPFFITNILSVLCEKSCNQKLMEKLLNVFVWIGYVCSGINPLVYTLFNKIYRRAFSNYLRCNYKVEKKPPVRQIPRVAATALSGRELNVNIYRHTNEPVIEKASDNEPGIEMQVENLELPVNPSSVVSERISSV
# method: Ca2+ flux functional assay at 5-HT2C (WuXi 5-HT2C protocol)
# Format: cell-based
# Design: expressed in transfected cells
observable: EC50

Record excerpt, results attached:
CCN(CC)C(=O)[C@@H]1C=C2c3cccc4[nH]cc(c34)C[C@H]2N(Cc2ccccc2)C1 [Compound 82] | > 10 µM
CN(C)C(=O)[C@@H]1C=C2c3cccc4[nH]cc(c34)C[C@H]2N(Cc2ccccc2)C1 [Compound 102] | 0.685 µM
CCN(CC)C(=O)[C@@H]1C=C2c3cccc4[nH]cc(c34)C[C@H]2N(Cc2cccc(O)c2)C1 [Compound 62] | > 10 µM
CCN(CC)C(=O)[C@@H]1C=C2c3cccc4[nH]cc(c34)C[C@H]2N(Cc2cccc(C#N)c2)C1 [Compound 76] | > 10 µM
CCN(CC)C(=O)[C@@H]1C=C2c3cccc4[nH]cc(c34)C[C@H]2N(Cc2cocn2)C1 [Compound 73] | 1.72 µM
CCN(CC)C(=O)[C@@H]1C=C2c3cccc4[nH]cc(c34)C[C@H]2N(Cc2ccc(F)cc2)C1 [Compound 49] | > 10 µM

Next up:
Supply measured EC50 of CCN(C)C(=O)[C@@H]1C=C2c3cccc4[nH]cc(c34)C[C@H]2N(Cc2cccc(OC)c2)C1 [Compound 92] in your reply.
> 10 µM
